I'd be grateful if you could share measured pIC50 for these entries.
Tested on: L6
Assay: Cytotoxicity against rat L6 cells after 72 hrs by alamar blue staining based fluorescence assay
Assay type: cell-based
Conditions: L6, 72 h
The value called pIC50 is obtained by taking minus log10 of the concentration in mol/L.

Problem: Param item = C=C1C(=O)O[C@@H]2/C=C(/C)[C@@H](OC(=O)C(O)C(C)C)C/C=C(\C)C[C@@H](OC(=O)/C(=C/CO)CO)[C@@H]12 (some centres not stated) ; retrieve measured pIC50.
Solution: 4.96

Problem: Param item = "C=C1C(=O)O[C@@H]2/C=C(/C)[C@@H](OC(C)=O)C/C=C(\C)C[C@@H](OC(=O)/C(=C/CO)CO)[C@@H]12" ; retrieve measured pIC50.
Solution: 5.11

Problem: Param item = C=C1C(=O)O[C@@H]2/C=C(/C)[C@@H](O)C[C@H]3O[C@]3(C)C[C@@H](OC(=O)/C(=C/COC(=O)C(O)C(C)C)CO)[C@@H]12 (some centres not stated) ; retrieve measured pIC50.
Solution: 4.84

Problem: Param item = "C=C1C(=O)O[C@@H]2/C=C(/C)[C@@H](OC(C)=O)C/C=C(\C)C[C@@H](OC(=O)/C(=C\CO)CO)[C@@H]12" ; retrieve measured pIC50.
Solution: 4.26

Problem: Param item = "COc1cc(CCCO)cc(O)c1OC" ; retrieve measured pIC50.
Solution: 3.83

Problem: Param item = C=C1C(=O)O[C@@H]2C3O[C@]3(C)CC/C=C(\C)CC[C@@H]12 (some centres not stated) ; retrieve measured pIC50.
Solution: 5.14

Problem: Param item = C=C1C(=O)O[C@@H]2/C=C(/C)[C@@H](OC(C)=O)C/C=C(\C)C[C@@H](OC(=O)C3=CC(O)OC3)[C@@H]12 (some centres not stated) ; retrieve measured pIC50.
Solution: 5.39

====

I'd be grateful if you could share measured IC50 for these entries.
Test system: L6
Test: Cytotoxicity against rat L6 cells after 72 hrs by alamar blue staining based fluorescence assay
Assay type: cell-based
Settings: L6, 72 h
Give the number; µM is assumed, so skip it.

Problem: Param item = "COc1ccc(-c2cc(=O)c3c(O)c(OC)c(O)cc3o2)cc1" ; retrieve measured IC50.
Solution: 20.2

Problem: Param item = "C=C1C(=O)O[C@@H]2/C=C(/C)[C@@H](OC(C)=O)C/C=C(\C)C[C@@H](OC(=O)c3ccoc3)[C@@H]12" ; retrieve measured IC50.
Solution: 2.1

Problem: Param item = "C=C1C(=O)O[C@@H]2/C=C(\C)CC/C=C(\C)C[C@@H](OC(=O)/C(=C/CO)CO)[C@@H]12" ; retrieve measured IC50.
Solution: 15.5

====

I'd be grateful if you could share measured selectivity ratio for these entries.
Assay: Selectivity index, ratio of IC50 for rat L6 cells to IC50 for Trypanosoma brucei rhodesiense STIB 900 bloodstream forms
Assay type: toxicity
Conditions: read-out: Ratio IC50
# output: bare number, no unit

Problem: Param item = "C=C1C(=O)O[C@@H]2/C=C(/C)[C@@H](OC(C)=O)C/C=C(\C)C[C@@H](OC(=O)c3ccoc3)[C@@H]12" ; retrieve measured selectivity ratio.
Solution: 20.5

Problem: Param item = "C=C1C(=O)O[C@@H]2/C=C(\C)[C@@H](O)C/C=C(\C)C[C@@H](OC(=O)/C(C)=C/CO)[C@@H]12" ; retrieve measured selectivity ratio.
Solution: 9.6

Problem: Param item = "COc1cc(CCCO)cc(O)c1OC" ; retrieve measured selectivity ratio.
Solution: 15.2

Problem: Param item = C=C1C(=O)O[C@@H]2/C=C(/C)[C@@H](OC(=O)C(O)C(C)C)C/C=C(\C)C[C@@H](OC(=O)/C(=C/CO)CO)[C@@H]12 (stereo partly drawn) ; retrieve measured selectivity ratio.
Solution: 13.4

Problem: Param item = "C=C1C(=O)O[C@@H]2/C=C(/C)[C@@H]3C/C=C(/C[C@@H](OC(=O)/C(=C/CO)CO)[C@@H]12)C[C@@](O)(C(C)C)C(=O)O3" ; retrieve measured selectivity ratio.
Solution: 4.1

Problem: Param item = "C=C1C(=O)O[C@@H]2/C=C(/C)[C@@H](OC(C)=O)C[C@H]3O[C@]3(C)C[C@@H](OC(=O)/C(=C/CO)CO)[C@@H]12" ; retrieve measured selectivity ratio.
Solution: 15.8

Problem: Param item = COc1ccc(-c2cc(=O)c3c(O)c(OC)c(O)cc3o2)cc1 [PECTOLINARIGENIN] ; retrieve measured selectivity ratio.
Solution: 3.3

Problem: Param item = C=C1C(=O)O[C@@H]2/C=C(/C)[C@@H](O)C[C@H]3O[C@]3(C)C[C@@H](OC(=O)/C(=C/COC(=O)C(O)C(C)C)CO)[C@@H]12 (stereo partly drawn) ; retrieve measured selectivity ratio.
Solution: 15.8

Problem: Param item = "C=C1C(=O)O[C@@H]2/C=C(/C)[C@@H](OC(C)=O)C/C=C(\C)C[C@@H](OC(=O)/C(=C\CO)CO)[C@@H]12" ; retrieve measured selectivity ratio.
Solution: 31.1

Problem: Param item = C=C1C(=O)O[C@H]2[C@H]1[C@H](OC(=O)/C(=C/CO)CO)CC(=C)[C@@H]1CC(=O)C(C)[C@H]21 (stereo partly drawn) ; retrieve measured selectivity ratio.
Solution: 19.2

Problem: Param item = C=C1C(=O)O[C@@H]2/C=C(\C)[C@@H](O)C/C=C(\C)C[C@@H](OC(=O)/C(=C/COC(=O)C(O)C(C)CC)CO)[C@@H]12 (stereo partly drawn) ; retrieve measured selectivity ratio.
Solution: 10.5

Problem: Param item = "C=C1C(=O)O[C@@H]2/C=C(/C)[C@@H](OC(C)=O)C/C=C(\C)C[C@@H](OC(=O)/C(=C/CO)CO)[C@@H]12" ; retrieve measured selectivity ratio.
Solution: 6.9

Problem: Param item = C=C1C(=O)O[C@@H]2/C=C(\C)[C@@H](O)C/C=C(\C)C[C@@H](OC(=O)/C(=C/COC(=O)C(O)C(C)C)CO)[C@@H]12 (stereo partly drawn) ; retrieve measured selectivity ratio.
Solution: 13

====

Test: Selectivity index, ratio of IC50 for rat L6 cells to IC50 for Trypanosoma brucei rhodesiense STIB 900 bloodstream forms
Type: toxicity
Details: read-out: Ratio IC50
PARAMETER: selectivity ratio
# output: bare number, no unit

Problem: Param item = C=C1C(=O)O[C@H]2[C@H]1[C@H](OC(=O)/C(=C/COC(=O)C(O)C(C)C)CO)C[C@]1(C)[C@@H]2[C@H](C)C(=O)C[C@H]1O (stereo partly drawn) ; retrieve measured selectivity ratio.
Solution: 14.6

Problem: Param item = "C=C1C(=O)O[C@@H]2/C=C(\C)CC/C=C(\C)C[C@@H](OC(=O)/C(=C/CO)CO)[C@@H]12" ; retrieve measured selectivity ratio.
Solution: 11.1

Problem: Param item = C=C1C(=O)O[C@@H]2C3O[C@]3(C)CC/C=C(\C)CC[C@@H]12 (stereo partly drawn) ; retrieve measured selectivity ratio.
Solution: 18.6
